target: OBP::GQ20::SP-DS3, engineered from OBP-I (Sus scrofa, UniProt P81245)
Construct: fusion of OBP-I with a linker of 20 glycine-glutamine repeats (GQ20) and the anchor peptide SP-DS3 ([…]); His-tag at N-terminal
Sequence (P81245 whole entry, change not shown, the tested form may be a part): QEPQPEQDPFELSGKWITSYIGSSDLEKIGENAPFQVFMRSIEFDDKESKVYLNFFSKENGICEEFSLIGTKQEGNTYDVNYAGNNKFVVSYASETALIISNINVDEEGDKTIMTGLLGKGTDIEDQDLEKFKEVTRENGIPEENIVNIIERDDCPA
protocolDetails: direct fluorescence titration with 1-AMA (ex […] nm, em […] nm), […] °C; Kd […] at […] °C
Format: binding
assayMetric: Kd (µM)
The reply should contain only the number, in µM.

Kd in this record for `Nc1cccc2cc3ccccc3cc12` : 0.58
